TESTED_ON: Dual specificity protein kinase CLK1 (Homo sapiens)
Sequence (P49759 whole entry): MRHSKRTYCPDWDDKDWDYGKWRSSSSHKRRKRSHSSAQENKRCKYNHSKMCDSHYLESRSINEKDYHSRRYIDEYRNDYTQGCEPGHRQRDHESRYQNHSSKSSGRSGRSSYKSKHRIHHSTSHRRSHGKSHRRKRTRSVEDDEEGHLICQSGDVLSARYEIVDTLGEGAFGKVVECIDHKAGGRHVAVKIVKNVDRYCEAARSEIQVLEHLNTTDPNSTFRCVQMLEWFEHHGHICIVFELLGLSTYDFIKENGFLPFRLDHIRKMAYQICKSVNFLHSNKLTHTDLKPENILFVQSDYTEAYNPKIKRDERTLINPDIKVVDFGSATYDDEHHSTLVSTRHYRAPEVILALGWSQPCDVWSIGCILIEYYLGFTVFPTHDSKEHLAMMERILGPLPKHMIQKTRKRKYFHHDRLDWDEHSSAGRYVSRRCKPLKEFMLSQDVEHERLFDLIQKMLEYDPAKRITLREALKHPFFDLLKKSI
EXPERIMENTAL_PROTOCOL: Inhibition of recombinant human CLK1 (130 to end residues) using ERMRPRKRQGSVR as substrate incubated for 40 mins in presence of [gamma-33ATP] by scintillation counting based radiometry assay
MEASURED_METRIC: pIC50
Please treat pIC50 as minus the base-10 logarithm of the molar concentration.

Worked examples follow.
>  <CHEMICAL_STRING>
C[C@@H](NC(=O)c1cnc2ccc(-c3cnn(C)c3)cn12)c1ccccc1

>  <TESTED_ON>
Dual specificity protein kinase CLK1 (Homo sapiens)

>  <pIC50>
7.85

$$$$
>  <CHEMICAL_STRING>
COc1ccc([C@@H](C)NC(=O)c2cnc3ccc(-c4ccc5ncccc5c4)cn23)cc1

>  <TESTED_ON>
Dual specificity protein kinase CLK1 (Homo sapiens)

>  <pIC50>
8.22

$$$$
>  <CHEMICAL_STRING>
COc1ccc(CNC(=O)c2cnc3ccc(-c4ccncc4)cn23)cc1

>  <TESTED_ON>
Dual specificity protein kinase CLK1 (Homo sapiens)

>  <pIC50>
7.89

$$$$
>  <CHEMICAL_STRING>
COc1ccc([C@@H](C)NC(=O)c2cnc3ccc(-c4cnn(C)c4)cn23)cc1

>  <TESTED_ON>
Dual specificity protein kinase CLK1 (Homo sapiens)

>  <pIC50>
8.10

$$$$
>  <CHEMICAL_STRING>
COc1ccc(CNC(=O)c2cnc3ccc(-c4cnn(C)c4)cn23)cc1

>  <TESTED_ON>
Dual specificity protein kinase CLK1 (Homo sapiens)

>  <pIC50>
8.22

$$$$
>  <CHEMICAL_STRING>
COc1ccc(NC(=O)c2cnc3ccc(-c4cnn(C)c4)cn23)cc1

>  <TESTED_ON>
Dual specificity protein kinase CLK1 (Homo sapiens)

>  <pIC50>
8.15

$$$$
>  <CHEMICAL_STRING>
Cn1cc(-c2ccc3ncc(C(=O)NCc4ccccc4)n3c2)cn1

>  <TESTED_ON>
Dual specificity protein kinase CLK1 (Homo sapiens)

>  <pIC50>
7.92

$$$$
>  <CHEMICAL_STRING>
C[C@@H](NC(=O)c1cnc2ccc(-c3ccc4ncccc4c3)cn12)c1ccccc1

>  <TESTED_ON>
Dual specificity protein kinase CLK1 (Homo sapiens)

>  <pIC50>
8.22

$$$$

Next compound, pIC50 to be filled in.
Hello, I am looking for reported pIC50 with Dual specificity protein kinase CLK1 (Homo sapiens) for COc1cccc(CNC(=O)c2cnc3ccc(-c4cnn(C)c4)cn23)c1 . Could you help?
7.96
